assay: small-molecule binders of probe aLefty1, primary screen, biochemical, small-molecule microarray, 635/667 nm fluorescence (AID 1153); conditions: higher = more signal;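 further: score merges spot fluorescence with signal-to-noise ratio from the scanned slide images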
Mark MET for reported composite z-score of -0.1 or greater; mark NOT MET for anything smaller.

molecule | qualitative.label
C[C@@H]1C=CCC(=O)OC[C@H]2O[C@@H](C=C[C@@H]2O)[C@H](C)C=CCC(=O)OC1 | NOT MET

# bool: composite z-score of CO[C@@H]1COC(=O)[C@@H](C)COC(=O)[C@@H](C)NC(=O)CC=C[C@@H]1C >= -0.1
MET

# bool: composite z-score of CCOC(=O)[C@H](CC(C)C)NC(=O)CCC1CC(OC(=O)NCCc2ccc(F)cc2)CC2(CCCC(COC(=O)NCCOc3ccccc3)O2)O1 (stereo not given in full) >= -0.1
NOT MET

# bool: composite z-score of CO[C@H]1COC(=O)CCC[C@@H](C)[C@H](OC)COC(=O)[C@@H]2CCCN2C(=O)CC=C[C@@H]1C >= -0.1
MET

# bool: composite z-score of CCOC(=O)[C@H](CC(C)C)NC(=O)CCC1CC(OC(=O)NCc2ccc3c(c2)OCO3)CC2(CCCC(COC(=O)NCC3CCCCC3)O2)O1 (stereo not given in full) >= -0.1
MET

# bool: composite z-score of Cn1c(=O)n2n(c1=O)[C@H]1[C@H](O)[C@@H]3O[C@@H]3C(=NOCc3ccccc3)[C@H]1CC2 >= -0.1
MET

# bool: composite z-score of COC(=O)CC=C[C@@H](C)[C@@H](C=NOC[C@@H](O)[C@H]1O[C@@H]2OC(C)(C)O[C@@H]2[C@H]1O)NS(=O)(=O)c1ccc(C)cc1 >= -0.1
MET

---

Can you tell me z-score for the items I'm about to list?
assay: modulators of HCV replicon luciferase signal, primary screen, HCV replication inhibitor project, Huh7 cells, luciferase reporter (AID 1109); conditions: 48 h, higher = more signal;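 further: huh7 hepatoma cells harbouring a luciferase neomycin HCV replicon reporter; luciferase luminescence as measure of HCV replicon replication; test concentration not given here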
Give bare numbers.

Observe how each entry below is paired with its result.
molecule | z-score
COC(=O)C1=C(C)N(Cc2ccccc2)[C@]23O[C@](C(=O)OC)(C(=O)N2[C@@H]1c1ccccc1)C(C(=O)OC)=C3C(=O)OC | -2.76
CC(C)CON=C1C[C@@H](O)[C@@H](O)[C@@H]2[C@@H]3C(=O)N(C4CCCCC4)C(=O)[C@@H]3CC[C@@H]12 | -1.6
CC(C)CON=C1C[C@@H](O)[C@@H](O)[C@@H]2[C@@H]3C(=O)N(C(C)(C)C)C(=O)[C@@H]3CC[C@H]12 | -0.451

In the following, a different molecule is considered.
# get_value(readout='z-score', item= CCOC(=O)[C@H](Cc1ccccc1)NC(=O)CCC1CC(OC(=O)NCCc2ccc(F)cc2)CC2(CCCC(COC(=O)NCCc3ccc(Cl)cc3)O2)O1 (some centres undefined) )
-0.226

---

Can you tell me z-score for the items I'm about to list?
test: modulators of HCV replicon luciferase signal, primary screen, HCV replication inhibitor project, Huh7 cells, luciferase reporter (AID 1109); details: 48 h, higher = more signal;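 further: huh7 hepatoma cells harbouring a luciferase neomycin HCV replicon reporter; luciferase luminescence as measure of HCV replicon replication; test concentration not given here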
Answers are plain numbers.

Observe how each entry below is paired with its result.
compound | property.label | result
CON=C[C@@H](NS(=O)(=O)c1ccc(C)cc1)[C@H](C)C=CCC(=O)OC | z-score | 0.604
CCOC(=O)C1=NO[C@]2(C=C(Br)C3(OCCCO3)[C@H]3O[C@H]32)C1 | z-score | 0.426
CC(=O)OC[C@H]1OC(ON=CC[C@@H]2C=C[C@H](OC(C)=O)[C@@H](COC(C)=O)O2)[C@H](OC(C)=O)[C@@H](OC(C)=O)[C@@H]1OC(C)=O (stereo partly drawn) | z-score | -0.3
CO[C@H]1COC(=O)CC=C[C@@H](C)[C@H](OC)COC(=O)CCC[C@@H]1C | z-score | -1.3
CO[C@H]1COC(=O)[C@@H](C)COC(=O)[C@H](C)NC(=O)CC=C[C@H]1C | z-score | -0.399

Give z-score for each listed item.
1. CO[C@H]1COC(=O)CCC[C@@H](C)[C@H](OC)COC(=O)[C@@H]2CCCN2C(=O)CC=C[C@@H]1C
2. CO[C@H]1COC(=O)[C@H](C)NC(=O)CC=C[C@@H](C)[C@H](OC)COC(=O)[C@@H](OCc2ccccc2)C=C[C@@H]1C
3. COC(=O)CC=C[C@@H](C)[C@@H](C=NO[C@H](C)c1cn([C@H](CO)Cc2ccccc2)nn1)OC

[-2.06, -0.339, -1.3]

---

system: Neuregulin-1 EGF-like domain; test: binders of neuregulin-1 EGF-like domain, primary screen, biochemical, small-molecule microarray, 635 nm fluorescence (AID 1081); details: small-molecule microarray binding, higher = more signal;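 further: binding of the protein to compounds printed on small-molecule microarray slides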
property.label: composite z-score
Numbers only.

compound | target.or.test.system | composite z-score
Cc1cc2c(nc1C)CCCCN2CC(C)ON=C[C@@H](C)[C@H](OCc1ccccc1)C(C)C (stereo not given in full) | Neuregulin-1 EGF-like domain | -0.366
O=C1CCCC=C1C(O)CCOC(c1ccccc1)(c1ccccc1)c1ccccc1 (stereo not given) | Neuregulin-1 EGF-like domain | -0.132
C[C@@H]1CC[C@H]2C(=O)O[C@@H](Cc3ccccc3)CN2[C@H]1c1ccc(Br)cc1 | Neuregulin-1 EGF-like domain | 0.408
COc1cccc([C@H]2Oc3ccc(OC)cc3C(=NOC[C@@H](O)[C@H]3O[C@@H]4OC(C)(C)O[C@@H]4[C@H]3O)[C@@H]2O)c1 | Neuregulin-1 EGF-like domain | 0.54
C[C@H]1COC(=O)[C@@H]2CCCN2C(=O)[C@@H](C)COC(=O)[C@H](Cc2ccccc2)NC1=O | Neuregulin-1 EGF-like domain | 0.184
CC(C)[C@@H](OCc1ccccc1)[C@H](C)C=NOC[C@@H](O)COCc1ccco1 | Neuregulin-1 EGF-like domain | -0.569
C[n+]1ccc(-c2ccc(CO)cc2)cc1 | Neuregulin-1 EGF-like domain | 0.0658
C[C@@H](ON=C1[C@H]2CCn3c(=O)n(-c4ccccc4)c(=O)n3[C@H]2[C@H](O)[C@@H]2O[C@H]12)c1cn([C@@H]2COC[C@H]2O)nn1 | Neuregulin-1 EGF-like domain | 0.261

Give composite z-score for each listed item.
1. C=CC1=C[C@H](O)[C@@H]2O[C@@H]2C12OCCCO2
2. CO[C@@H]1COC(=O)[C@H](CCSC)NC(=O)CC=C[C@@H](C)COC(=O)[C@H](C)NC(=O)CC=C[C@H]1C

0.35
0.871

---

molecular target: Fibroblast growth factor 2 (Homo sapiens) (UniProt P09038); experiment: FGF2 binders on small-molecule microarrays, primary screen, biochemical, small-molecule microarray, 635/667 nm fluorescence (AID 1133); conditions: small-molecule microarray binding, FGF2, fluorescence 635/667; higher = more signal
Sequence (P09038 whole entry, looked up): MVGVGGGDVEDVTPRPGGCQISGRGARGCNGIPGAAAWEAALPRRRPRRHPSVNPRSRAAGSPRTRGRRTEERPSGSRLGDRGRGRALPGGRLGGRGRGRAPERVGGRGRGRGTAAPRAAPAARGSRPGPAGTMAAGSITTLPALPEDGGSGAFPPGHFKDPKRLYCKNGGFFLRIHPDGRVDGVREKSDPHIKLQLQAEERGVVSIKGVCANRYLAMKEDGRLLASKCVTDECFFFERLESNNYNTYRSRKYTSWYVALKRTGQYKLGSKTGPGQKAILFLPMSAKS
Can you tell me composite z-score for the items I'm about to list?

Observe how each entry below is paired with its result.
mol.smiles | target.or.test.system | composite z-score
CC(CCN1CCc2nc(-c3ccccc3)c(-c3ccccc3)cc2C1)=NOC[C@@H](O)[C@H]1O[C@@H]2OC(C)(C)O[C@@H]2[C@H]1O | Fibroblast growth factor 2 (Homo sapiens) (UniProt P09038) | 0.409
COC(=O)[C@H]1O[C@@H](c2c(OC)c(OC)c(C)c(OC)c2OC)[C@H](C)[C@@H](O)[C@H]1C | Fibroblast growth factor 2 (Homo sapiens) (UniProt P09038) | 0.577
CCOC(=O)NN=C1C[C@@H](O)[C@@H](O)[C@@H]2[C@@H]3C(=O)N(C(C)(C)C)C(=O)[C@@H]3CC[C@H]12 | Fibroblast growth factor 2 (Homo sapiens) (UniProt P09038) | 0.647
O=C1[C@H]2[C@H]3[C@H](O)[C@H](O)CC(=NOC[C@@H](O)COCc4ccco4)[C@H]3CC[C@H]2C(=O)N1Cc1ccccc1 | Fibroblast growth factor 2 (Homo sapiens) (UniProt P09038) | 0.633
CC(C)=CCCC(C)=CCON=C1C[C@@H](O)[C@@H](O)[C@@H]2[C@@H]3C(=O)N(Cc4ccccc4)C(=O)[C@@H]3CC[C@H]12 | Fibroblast growth factor 2 (Homo sapiens) (UniProt P09038) | 0.736
O=C1[C@H]2[C@H]3[C@H](O)[C@H](O)CC(=NO[C@@H]4O[C@H](CO)[C@@H](O)[C@H](O)[C@H]4O)[C@H]3CC[C@H]2C(=O)N1c1cccc(Oc2ccccc2)c1 | Fibroblast growth factor 2 (Homo sapiens) (UniProt P09038) | 0.445
CCc1cc2c(nc1CC)CCN(CCC(C)=NO[C@H](C)c1cn([C@H](CO)Cc3ccccc3)nn1)C2 | Fibroblast growth factor 2 (Homo sapiens) (UniProt P09038) | 0.884
CCCNC(=O)OC[C@H]1O[C@H](CCON=C(C)CCN2CCc3nc(CC)c(CC)cc3C2)C=C[C@@H]1Oc1ccc(OC)cc1 | Fibroblast growth factor 2 (Homo sapiens) (UniProt P09038) | -0.167
CC(CCC(=O)OC[C@H]1O[C@H](C#Cc2ccccc2)C=C[C@@H]1Oc1ccc(C)cc1)=NO[C@H](C)c1cn([C@H](CO)Cc2ccccc2)nn1 | Fibroblast growth factor 2 (Homo sapiens) (UniProt P09038) | 0.52
CCCCC#C[C@@H]1C=C[C@H](OC(C)=O)[C@@H](COC(C)=O)O1 | Fibroblast growth factor 2 (Homo sapiens) (UniProt P09038) | 0.316

Give composite z-score for each listed item.
1. CO[C@@H]1COC(=O)[C@@H](C)COC(=O)[C@@H](C)NC(=O)CC=C[C@@H]1C
2. CCOC(=O)NN=C1C[C@@H](O)[C@@H](O)[C@@H]2[C@@H]3C(=O)N(c4cccc(Oc5ccccc5)c4)C(=O)[C@@H]3CC[C@@H]12
3. COc1cccc([C@H]2Oc3ccc(OC)cc3C(=NOC[C@@H](O)[C@H]3O[C@@H]4OC(C)(C)O[C@@H]4[C@H]3O)[C@@H]2O)c1

1: 1.7; 2: -0.248; 3: 0.318

Give recorded composite z-score with Fibroblast growth factor 2 (Homo sapiens) (UniProt P09038) for the following compound: COC(=O)[C@@H]1CC[C@H](C)[C@@H](c2ccc(C)cc2)N1C(=O)c1ccc(C=NO[C@@H]2O[C@H](COC(C)=O)[C@@H](OC(C)=O)[C@H](OC(C)=O)[C@H]2OC(C)=O)cc1
0.336
